Ref: patent US9707290

Documented log10(Kd) across a set of binders
experimental_system: 10E8 antibody
procedure_text: SPR
Log10 applied to Kd; unit prior to transform: pM.

10E8_T117v2-1_g28_g91012 (designed binder, added N-linked glycosylation sites (glycan-masked)) NAMQGIHFRRHYVRHLPKNVSQNDIIKALASPLINDGMVVSDFADHVITRENNSPTGLPVEPVGVAIPHTDSKYVNQSAISVGILAEPVNFEDANGTPDPVPVRVVFMLALGNWFDITNVLWWIKAVIQDEDFMQQLLNMSDDEIYQSIYTRISE ... 2.26
10E8_T117v2-3 (designed binder) NAMQGIHFRRHYVRHLPKEVSQNDIIKALASPLINDGMVVSDFADHVITREQNFPTGLPVEPVGVAIPHTDSKYVRQNAISVGILAEPVNFEDAGGEPDPVPVRVVFMLALGSWFNISNVLWWIRAVIQDEDFMQQLLVMNDDEIYQSIYTRISELEHHHHHH ... 2.97
10E8_T117v2-2 (designed binder) NAMQGIHFRRHYVRHLPKEVSQNDIIKALASPLINDGMVVSDFADHVITREQNFPTGLPVEPVGVAIPHTDSKYVRQNAISVGILAEPVNFEDAGGEPDPVPVRVVFMLALGNWFSITKVLWWIKAVIQDEDFMQQLLVMNDDEIYQSIYTRISELEHHHHHH ... 3.11
10E8_T93v2RT12-4 (designed binder) GKADEVREKARRRMEQAVEEFKRRLRQFEEKVKQKEPRDDEINRWIDIVKKKADEAKKRVEEVGDQAADEAAQLGNDPNVNWFDISRVLWDVKKLTEKAINDIDDALKKMKDWLESGLEHHHHHH ... 3.43
10E8_T117v2-5 (designed binder) NAMQGIHFRRHYVRHLPKEVSQNDIIKALASPLINDGMVVSDFADHVITREQNFPTGLPVEPVGVAIPHTDSKYVRQNAISVGILAEPVNFEDAGGEPDPVPVRVVFMLALGNWFDITQVLWWIKAVIQDEDFMQQLLVMNDDEIYQSIYTRISELEHHHHHH ... 2.19

Task: Fill blank: measured log10(Kd) of the binder 10E8_T93v2RT12-3 (designed binder) GKADEVREKARRRMEQAVEEFKRRLRQFEEKVKQKEPRDDEINRWIDIVKKKADEAKKRVEEVGDQAADEAAQLGNDPNVSWFNISNVLWDVRKLTEKAINDIDDALKKMKDWLESGLEHHHHHH is ____.
Result: 2.04

Task: Fill blank: measured log10(Kd) of the binder 10E8_T93v2RT12-1 (designed binder) GKADEVREKARRRMEQAVEEFKRRLRQFEEKVKQKEPRDDEINRWIDIVKKKADEAKKRVEEVGDQAADEAAQLGNDPNVNWFDITNVLWDVKKLTEKAINDIDDALKKMKDWLESGLEHHHHHH is ____.
Result: 1.60
